Test system: MS2 coat protein
Test: apparent KD of MS2 coat protein; designed switch direction (-1 OFF switch, 1 ON switch): -1; higher = weaker reporter binding
Conditions: Eterna round: R95; input ligand: FMN 200 uM
Lab note: compare apparent KD of MS2 coat protein against 90 nM. Equal or greater, write class 1. Smaller, write class 0.

Solved cases (9 shown):
polymer-sequence	assigned-label
AGUUGGCGAGGAUAUACAUGAGGAUCACCCAUGUGAAAUAGAAGAGUGAGGAAGAAAAGUAGAAGGCGCUGACA [Mat - Exclusion 3 - Mod of Salish D40] (puzzle: Exclusion 3)	class 1
CGCUAGUCAGGAUAUACGAACAUGUCAAAAGACGUGAAGGGACAUGAGGAUCACCCAUGUAGAAGGGACUAGCC [salish99_ex2_r3_011] (puzzle: Exclusion 2)	class 1
UUUAAUUUUUUUUUUUUACAAGCUUUUUGCUCGUCUUAUACAUGAGGAUCACCCAUGUGGGUGGGAGGUAAAUUAUC [JMF 78] (puzzle: Sensor v3, turn-off variant 2)	class 0
CAAAACCUAGGAUAUACAUGAGGAUCACCCAUGUCGGGCCUACGCUAAACGCGCCUCAGUAGAAGGAGGGAAAC [Usasoon] (puzzle: Exclusion 3)	class 1
GAUUAUGCGAGCUUUAGGGACAUGAGGAUCACCCAUGUUCGUCUUAUUGGUCUAGGUACGCUAACAUACCUAAAUCU [JMF 4] (puzzle: Sensor v3, turn-off variant 1)	class 0
AAAAGGUGAGGAUAUACAAUGAUCCUCAUAAUAACCCGAAGACAUGAGGAUCACCCAUGUAGAAGGCACAAAUA [Istive] (puzzle: Exclusion 2)	class 0
UCUGGUCGGAAGGAUAUGGUCGGGUCAAAUCGUCCAGAAGGUCUGACAUGAGGAUCACCCAUGUGAGUCCAAAG [Ataesma] (puzzle: Exclusion 6)	class 0
CGUGACUCAGGAUAUGGAUUAUAUCACAUGAGGAUCACCCAUGUCCAGCGAAAGCUGGAGUCAGAAGGGAGUCACG [Fiskers Ex 5 - 48] (puzzle: Exclusion 5)	class 0
AAGUACCGUCACGAUAGUGAUGGUACAACUAGCAUGUAAACAUGAGGAUCACCCAUGUCCUCAAUUGCUCGUCUUAU [Sensor 3 - 69] (puzzle: Sensor v3, turn-off variant 2)	class 1

Here is another sequence to look at.
Form field: apparent KD of MS2 coat protein at least 90 nM? Entry: ACCCAACAUGAGGAUCACCCAUGUCAGGAUAUCCAAGCGAAAGCAAAAGCGAAAGCAAGGAGAAGGGACAAUGG [ChP 04-04-2015 #7] (puzzle: Exclusion 1)
class 1

---

Test system: MS2 coat protein
Test: apparent KD of MS2 coat protein; designed switch direction (-1 OFF switch, 1 ON switch): -1; higher = weaker reporter binding
Settings: input ligand: none
assay-metric: apparent KD of MS2 coat protein
Please report the result as a number followed by the unit.

Look over these answered cases.
polymer-sequence	apparent KD of MS2 coat protein
GUUGUGUGAGGAUAUGCCUGGCCGUGAGGCCAGAUUGAGUGGCAGAAGGUACAUGAGGAUCACCCAUGUACGGG [salish99_ex4_4_004] (Eterna round: R97, puzzle: Exclusion 4)	24.4 nM
UGUUGUCGCGCAGGAUAUGAGGAUCACCCAUAUAAAGGAUAUGAAAAGAAGGUUCUGAGGAUUACCCAGAAGGGCGGGACAACU [pwkr exNG2 2xF5 2xFMN.16] (Eterna round: R96, puzzle: Exclusion NG 2)	52.3 nM

Provide apparent KD of MS2 coat protein value for the following sequence: AGCUGUGGCCGAGGAUAUACAAUAACGAUGAGUGGAUUACACUCUUCGACAUGAGGAUCACCCAUGUAGAAGGCGGUCUCAGCA [Eli eng2 - 001] (Eterna round: R96, puzzle: Exclusion NG 2)
18 nM
